// values below are reported Fluorescence time course, Rat
Target: rat diaphorase (Rattus norvegicus, UniProt P05982)
Construct: purchased Sigma
Sequence (P05982 2-274 limits assumed): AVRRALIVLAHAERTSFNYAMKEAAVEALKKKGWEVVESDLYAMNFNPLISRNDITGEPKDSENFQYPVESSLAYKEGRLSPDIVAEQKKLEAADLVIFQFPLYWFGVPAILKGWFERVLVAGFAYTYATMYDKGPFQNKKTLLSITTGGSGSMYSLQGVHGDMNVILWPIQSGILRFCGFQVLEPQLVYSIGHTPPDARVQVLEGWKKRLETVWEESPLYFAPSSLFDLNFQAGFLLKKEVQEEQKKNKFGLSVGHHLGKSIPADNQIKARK
Format: biochemical
Settings: 100 min; 10 uM NADH
Quick reminder: number only, in FLUs, skip the unit.

Illustrative cases are given below, each with its answer.
CC1=C(C)C(=O)C(C(C)(C)CC(=O)N(C)CCN(C)C(=O)Oc2ccc3c(c2)Oc2cc(O)ccc2C32OC(=O)c3ccccc32)=C(C)C1=O (stereo not shown) ... 181996
CC1=C(C)C(=O)C(C(C)(C)CC(=O)N(C)CCN(C)C(=O)Oc2ccc3c(c2)Oc2cc(OC(=O)N(C)CCN(C)C(=O)CC(C)(C)C4=C(C)C(=O)C(C)=C(C)C4=O)ccc2C32OC(=O)c3ccccc32)=C(C)C1=O ... 10496
CC1=CC(=O)C(C)=C(C(C)(C)CC(=O)N(C)CCN(C)C(=O)Oc2ccc3c(c2)Oc2cc(OC(=O)N(C)CCN(C)C(=O)CC(C)(C)C4=C(C)C(=O)C=C(C)C4=O)ccc2C32OC(=O)c3ccccc32)C1=O ... 13732

Form: compound = CC1=CC(=O)C(C)=C(C(C)(C)CC(=O)N(C)CCN(C)C(=O)Oc2ccc3c(c2)Oc2cc(O)ccc2C32OC(=O)c3ccccc32)C1=O (stereo not shown) ; Fluorescence time course, Rat = 180027
